- run_description: Part A: PK of single-dose fruquintinib alone and with itraconazole (CYP3A inhibition)
- Format: in vivo, human
- measurement_parameters: both sexes, human, oral; fruquintinib in plasma; Part A, fruquintinib alone 5 mg; arithmetic mean (SD), n = 14
measured_parameter: AUC(0-inf) (ng·h/mL)

INSERT INTO assay_data (compound, measured_parameter, value) VALUES
  ('CNC(=O)c1c(C)oc2cc(Oc3ncnc4cc(OC)c(OC)cc34)ccc12 [Fruquintinib]', 'AUC(0-inf)', 5960);

----------
- run_description: Part B: PK of single-dose fruquintinib alone and with rifampin (CYP3A induction)
- Format: in vivo, human
- measurement_parameters: both sexes, human, plasma, oral, 5 mg, metabolite M11 in plasma; Part B, fruquintinib alone 5 mg; arithmetic mean (SD), n = 13; read-out: AUC0‐inf
measured_parameter: AUC (ng·h/mL)

INSERT INTO assay_data (compound, measured_parameter, value) VALUES
  ('COc1cc2ncnc(Oc3ccc4c(C(N)=O)c(C)oc4c3)c2cc1OC [M11]', 'AUC', 2160);

----------
- run_description: Part A: PK of single-dose fruquintinib alone and with itraconazole (CYP3A inhibition)
- Type: in vivo, human
- measurement_parameters: both sexes, human, oral; fruquintinib in plasma; Part A, fruquintinib 5 mg + itraconazole 200 mg; arithmetic mean (SD), n = 14
- Excerpt: This was a single‐center, open‐label, 2‐part (Part A and Part B), 2‐period, fixed‐sequence study conducted in healthy male and female subjects. Parts A and B evaluated the effect of the CYP3A inhibitor itraconazole and the CYP3A inducer rifampin on the PK profile of fruquintinib, respectively. Each part consisted of a screening phase, a treatment phase (Period 1 and Period 2), and an end‐of‐study (EOS) phase. Screening occurred within 21 days before the first study drug administration. […]
measured_parameter: AUC(0-t) (ng·h/mL)

INSERT INTO results (smiles_input, measured_parameter, units_symbol, value) VALUES
  ('CNC(=O)c1c(C)oc2cc(Oc3ncnc4cc(OC)c(OC)cc34)ccc12', 'AUC(0-t)', 'ng·h/mL', 6040);

----------
- run_description: Part A: PK of single-dose fruquintinib alone and with itraconazole (CYP3A inhibition)
- Type: in vivo, human
- measurement_parameters: both sexes, human, oral; metabolite M11 in plasma; Part A, fruquintinib 5 mg + itraconazole 200 mg; arithmetic mean (SD), n = 14; read-out: Cmax
measured_parameter: Cmax

INSERT INTO assay_data (smiles_input, measured_parameter, value) VALUES
  ('COc1cc2ncnc(Oc3ccc4c(C(N)=O)c(C)oc4c3)c2cc1OC', 'Cmax', '6.7 ng/mL');

----------
- run_description: Part B: PK of single-dose fruquintinib alone and with rifampin (CYP3A induction)
- Assay type: in vivo, human
- measurement_parameters: both sexes, human, oral; metabolite M11 in plasma; Part B, fruquintinib alone 5 mg; arithmetic mean (SD), n = 14; read-out: Cmax
measured_parameter: Cmax (ng/mL)

INSERT INTO results (smiles_input, value) VALUES
  ('COc1cc2ncnc(Oc3ccc4c(C(N)=O)c(C)oc4c3)c2cc1OC', 13.7);
